As shown below, each of these molecules has a reported IC50 value.
Assay Info: Inhibition of Magnaporthe grisea Guy 11 isocitrate lyase
Design: species or system Pyricularia grisea

smiles_notation=COC(=O)c1ccccc1NC(=O)[C@@H](NC(=O)c1cnc2c(n1)c(=O)[nH]c(=O)n2C)[C@@H](C)O measurement="> 100 µM"

Next:
[in] # input molecule: COC(=O)c1ccccc1NC(=O)[C@H](CO)NC(=O)c1cnc2c(n1)c(=O)[nH]c(=O)n2C ; wanted: its IC50
[out] > 100 µM

====

As shown below, each of these compounds has a reported pIC50 value.
Target Under Test: Sortase A (Staphylococcus aureus)
Sequence (Q9S446 whole entry): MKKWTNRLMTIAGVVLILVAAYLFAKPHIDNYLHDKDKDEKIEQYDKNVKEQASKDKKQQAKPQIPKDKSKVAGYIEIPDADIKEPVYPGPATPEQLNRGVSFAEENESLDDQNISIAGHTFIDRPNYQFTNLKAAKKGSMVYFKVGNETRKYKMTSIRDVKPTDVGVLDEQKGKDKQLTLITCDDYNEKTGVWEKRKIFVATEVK
Assay Info: Inhibition of recombinant Staphylococcus aureus ATCC 6538p sortase A incubated for 1 hr in presence of (Dabcyl-QALPETGEE-Edans substrate by fluorescence spectrophotometry
pIC50: −log10 of the molar value.

smiles_notation=COC(=O)c1ccccc1NC(=O)[C@@H](NC(=O)c1cnc2c(n1)c(=O)[nH]c(=O)n2C)[C@@H](C)O measurement="< 4.00"

Next:
[in] # input compound: COC(=O)c1ccccc1NC(=O)[C@H](CO)NC(=O)c1cnc2c(n1)c(=O)[nH]c(=O)n2C ; wanted: its pIC50
[out] < 4.00

====

Target Under Test: Cathepsin B (Homo sapiens, UniProt P07858)
Quantity: pIC50
Note on units: pIC50 is unitless, being -log10 of a concentration expressed in mol/L.

[in] For Cathepsin B (Homo sapiens, UniProt P07858), provide pIC50 of CN(CCc1cnc[nH]1)c1cnc2[nH]c(=O)[nH]c(=O)c2n1 please.
[out] 5.31

====

Target Under Test: Sodium/potassium-transporting ATPase
Assay Info: Inhibition of Na+/K+-ATPase in human placental syncytiotrophoblast-microvillous membranes/basal membranes using 3-O-methylfluorescein phosphate by fluorometric method
pIC50: −log10 of the molar value.
As shown below, each of these compounds has a reported pIC50 value.

smiles_notation=COC(=O)c1ccccc1NC(=O)[C@H](CO)NC(=O)c1cnc2c(n1)c(=O)[nH]c(=O)n2C measurement="< 4.00"

[in] # input compound: COC(=O)c1ccccc1NC(=O)[C@@H](NC(=O)c1cnc2c(n1)c(=O)[nH]c(=O)n2C)[C@@H](C)O ; wanted: its pIC50
[out] < 4.00
